# Test system: MDA-MB-231
# Experiment summary: Cytotoxicity in human MDA-MB-231 cells assessed as reduction in cell viability incubated for 96 hrs by SRB assay
# Format: functional, cell-based
# Details: MDA-MB-231, 96 h
# pIC50 values compiled below
Quick note: pIC50 means taking -log10 of the concentration in moles per liter.

* COC(=O)[C@@]1(C)CC[C@]2(C)CC[C@]3(C)C(=CC(=O)[C@@H]4[C@@]5(C)Cc6cn(C(=O)CCCC7CCNCC7)nc6C(C)(C)[C@@H]5CC[C@]43C)[C@H]2C1 | 5.01

compound COC(=O)[C@@]1(C)CC[C@]2(C)CC[C@]3(C)C(=CC(=O)[C@@H]4[C@@]5(C)Cc6cn(S(C)(=O)=O)nc6C(C)(C)[C@@H]5CC[C@]43C)[C@H]2C1 , pIC50 observed: 4.54

Notebook: COC(=O)[C@@]1(C)CC[C@]2(C)CC[C@]3(C)C(=CC(=O)[C@@H]4[C@@]5(C)Cc6cn(C(=O)CC7CCNCC7)nc6C(C)(C)[C@@H]5CC[C@]43C)[C@H]2C1 , pIC50 read as 5.00
